- Test system: MET(Y1235D)
- conditions: Compound Concentration (nM):1000;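 further: KINOMEscan scanMAX binding as percent activity remaining versus control; lower means stronger binding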
Catalogue of compounds with associated Percent Control

| compound | tgt | Percent Control [%] |
| --- | --- | --- |
| NS(=O)(=O)c1ccc(N/N=C2\C(=O)Nc3ccc(-c4cnco4)cc32)cc1 | MET(Y1235D) | 100 |
| NS(=O)(=O)c1ccc(N/N=C2\C(=O)Nc3ccc(C(=O)NCCc4c[nH]cn4)cc32)cc1 [GW300660X] | MET(Y1235D) | 100 |
| COC(=O)Nc1nc2ccc(Oc3ccc(NC(=O)Nc4cc(C(F)(F)F)ccc4F)cc3)cc2s1.Cl [GW693917A] | MET(Y1235D) | 6.6 |
| CCS(=O)(=O)c1ccc(OC)c(Nc2ncc(-c3cccc(OC)c3)o2)c1 [GW580509X] | MET(Y1235D) | 100 |

----------
- Tested on: EPHB2
- conditions: Compound Concentration (nM):1000
The molecules listed here are annotated with their Percent Control.

| molecule | Percent Control (%) |
| --- | --- |
| COc1ccccc1-c1cc(/C=C2\C(=O)Nc3ncc(Br)cc32)cc(Br)c1O [GW442130X] | 100 |
| COc1ccc2[nH]c3c4[nH]c5ccc(OC)cc5c4c4c(c3c2c1)C(=O)NC4=O [GW296115X] | 84 |
| Cl.O=C(Nc1ccc(Oc2ccc3[nH]c(NC(=O)c4ccco4)nc3c2)cc1)Nc1cc(C(F)(F)F)ccc1F [GW683134A] | 31 |
| CCn1c(-c2nonc2N)nc2c(C#CC(C)(C)O)nc(OCCNC)cc21.Cl [GSK949675] | 94 |
| CN(C)CCNC(=O)Nc1ccc(N(C)c2ccnc(Nc3ccc(CS(C)(=O)=O)cc3)n2)cc1.Cl [GW830900A] | 100 |
| COc1cccc(-c2c[nH]c3c(N/N=C/c4ccncc4)ncnc23)c1 [GW814408X] | 100 |
| COc1cc(C)c(N(C)C(=O)CN(C)C)cc1Nc1nc(Nc2cccc(F)c2C(N)=O)c2cc[nH]c2n1 [GSK2219385] | 100 |
| COc1cc2ncn(-c3cc(O[C@H](C)c4ccccc4Cl)c(C(N)=O)s3)c2cc1OC [GSK237701A] | 90 |
| C[C@@H](Oc1cc(-n2cnc3ccc(OC4CCN(C)CC4)cc32)sc1C(N)=O)c1ccccc1Cl [GSK579289A] | 77 |

----------
Parameter Percent Control: see the listing below.
- System: MERTK
- conditions: Compound Concentration (nM):1000

| compound | Percent Control, % |
| --- | --- |
| CC1=C(C(=O)Nc2ccc3[nH]ncc3c2)C(c2ccc3ccccc3c2)CC(=O)N1 (stereo not shown) [GSK270822A] | 100 |
| Cl.O=C(Nc1ccc(Oc2ccc3[nH]c(NC(=O)c4ccco4)nc3c2)cc1)Nc1cc(C(F)(F)F)ccc1F [GW683134A] | 0.2 |
| CC1=C(C(=O)Nc2ccc3[nH]ncc3c2)C(c2ccc(Cl)c(Cl)c2)CC(=O)N1 (stereo not shown) [GSK299115A] | 100 |
| C[C@@H](Oc1cc(-n2cnc3ccc(OC4CCN(C)CC4)cc32)sc1C(N)=O)c1ccccc1Cl [GSK579289A] | 84 |

----------
- Test system: CSNK2A1
- conditions: Compound Concentration (nM):1000
Threshold-based label: Percent Control under 60% gives y, Percent Control not under 60% gives n.

| molecule | category |
| --- | --- |
| COc1cccc(-c2c[nH]c3c(N/N=C/c4ccncc4)ncnc23)c1 [GW814408X] | y |
| C[C@@H](Oc1cc(-n2cnc3ccc(OC4CCN(C)CC4)cc32)sc1C(N)=O)c1ccccc1Cl [GSK579289A] | y |
| COc1cc(N2CCN(C(C)C)CC2)ccc1Nc1nc(Nc2ccc(F)cc2C(=O)NC[C@@H](O)CO)c2cc[nH]c2n1 [GSK1392956A] | y |
| COc1cc(C=NNc2ncnc3c2cnn3-c2ccccc2)ccc1O [GW513184X] | y |
| COc1cccc(-n2ncc3c(N/N=C/c4ccncc4)ncnc32)c1 [GW784752X] | y |
| CN(C)CCNC(=O)Nc1ccc(N(C)c2ccnc(Nc3ccc(CS(C)(=O)=O)cc3)n2)cc1.Cl [GW830900A] | n |
| Cl.c1ccc(Cc2nc3ccc(Nc4ncnc5ccccc45)cc3[nH]2)cc1 [GR269666A] | n |

----------
- System: SRPK2
- conditions: Compound Concentration (nM):1000
In this section we review reported Percent Control values for a set of molecules.

| molecule | tgt | uom | Percent Control |
| --- | --- | --- | --- |
| CC1=C(C(=O)Nc2ccc3[nH]ncc3c2)C(c2ccc(Cl)c(Cl)c2)CC(=O)N1 (stereo not shown) [GSK299115A] | SRPK2 | % | 100 |
| Cl.O=C(O[C@H]1CN[C@H](C#Cc2cc3ncnc(Nc4ccc5c(cnn5Cc5ccccc5)c4)c3s2)C1)N1CCOCC1 [GSK200398A] | SRPK2 | % | 85 |
| COC(=O)Nc1nc2ccc(Oc3ccc(NC(=O)Nc4cc(C(F)(F)F)ccc4F)cc3)cc2s1.Cl [GW693917A] | SRPK2 | % | 90 |
| COc1ccc2c(-c3ccnc(Nc4cccc(OC(F)(F)F)c4)n3)cnn2n1 [GW810372X] | SRPK2 | % | 87 |
| NS(=O)(=O)c1ccc(N/N=C2\C(=O)Nc3ccc(C(=O)NCc4ccncc4)cc32)cc1 [GW300657X] | SRPK2 | % | 6.6 |
| COc1cc(C)c(N(C)C(=O)CN(C)C)cc1Nc1nc(Nc2cccc(F)c2C(N)=O)c2cc[nH]c2n1 | SRPK2 | % | 100 |
| Nc1ncnc2occ(-c3ccc(NC(=O)Nc4cc(C(F)(F)F)ccc4F)cc3)c12 [GW770249X] | SRPK2 | % | 76 |
| CN1CCN(C(=O)c2ccc(NC(=O)Nc3ccc(N(C)c4ccnc(Nc5ccc(CS(C)(=O)=O)cc5)n4)cc3)cc2)CC1.Cl [GW830263A] | SRPK2 | % | 80 |
| COc1ccc2[nH]c3c4[nH]c5ccc(OC)cc5c4c4c(c3c2c1)C(=O)NC4=O [GW296115X] | SRPK2 | % | 94 |
| CC1=C(C(=O)Nc2ccc3[nH]ncc3c2)C(c2ccc3ccccc3c2)CC(=O)N1 (stereo not shown) [GSK270822A] | SRPK2 | % | 100 |
| CN(C)c1cc2c(Nc3ccc4c(cnn4Cc4ccccc4)c3)ncnc2cn1 [GW282974X] | SRPK2 | % | 100 |
| O=C1Nc2ccc(C(=O)c3ccco3)cc2C1=Cc1cc(Cl)c(O)c(Cl)c1 [GW406108X] | SRPK2 | % | 100 |
| NS(=O)(=O)c1ccc(N/N=C2\C(=O)Nc3ccc(-c4cnco4)cc32)cc1 | SRPK2 | % | 100 |
| C/C(Nc1ccc(S(N)(=O)=O)cc1)=C1/C(=O)Nc2ccccc21 [GW335962X] | SRPK2 | % | 88 |
| CCS(=O)(=O)c1ccc(OC)c(Nc2ncc(-c3cccc(OC)c3)o2)c1 [GW580509X] | SRPK2 | % | 100 |
| CCS(=O)(=O)c1ccc(OC)c(Nc2ncc(-c3cccc(F)c3)o2)c1 [GW621970X] | SRPK2 | % | 97 |

----------
- System: ABL1(Y253F)-phosphorylated
- conditions: Compound Concentration (nM):1000

| molecule | Percent Control (%) |
| --- | --- |
| Cc1cc(O)cc(C)c1/C=C/c1cncc(C(N)=O)c1 [GW435821X] | 8.8 |
| CN(C)CCNC(=O)Nc1ccc(N(C)c2ccnc(Nc3ccc(CS(C)(=O)=O)cc3)n2)cc1.Cl [GW830900A] | 65 |
| Cl.O=C(Nc1ccc(Oc2ccc3[nH]c(NC(=O)c4ccccc4)nc3c2)cc1)Nc1cc(C(F)(F)F)ccc1F [GW709042A] | 69 |
| NS(=O)(=O)c1ccc(N/N=C2\C(=O)Nc3ccc(C(=O)NCc4ccncc4)cc32)cc1 [GW300657X] | 82 |
| COc1ccc2c(-c3ccnc(Nc4cccc(OC(F)(F)F)c4)n3)cnn2n1 [GW810372X] | 100 |
| COc1cc(C)c(N(C)C(=O)CN(C)C)cc1Nc1nc(Nc2cccc(F)c2C(N)=O)c2cc[nH]c2n1 [GSK2219385] | 100 |
| Cl.O=C(Nc1ccc(Oc2ccc3[nH]c(NC(=O)c4ccco4)nc3c2)cc1)Nc1cc(C(F)(F)F)ccc1F [GW683134A] | 17 |
| COc1ccccc1-c1cc(/C=C2\C(=O)Nc3ncc(Br)cc32)cc(Br)c1O [GW442130X] | 88 |
| CC1=C(C(=O)Nc2ccc3[nH]ncc3c2)C(c2ccc3ccccc3c2)CC(=O)N1 (centres unmarked) [GSK270822A] | 79 |
| NS(=O)(=O)c1ccc(N/N=C2\C(=O)Nc3ccc(C(=O)NCCc4c[nH]cn4)cc32)cc1 [GW300660X] | 100 |
| CCn1c(-c2nonc2N)nc2c(C#CC(C)(C)O)nc(OCCNC)cc21.Cl [GSK949675] | 91 |
| COc1ccc2[nH]c3c4[nH]c5ccc(OC)cc5c4c4c(c3c2c1)C(=O)NC4=O [GW296115X] | 53 |
| COc1ccc2cc(-c3c(-c4ccncc4)nc(-c4ccc(S(C)(=O)=O)cc4C)n3C)ccc2c1 [SB-633825] | 86 |
| CN1CCN(C(=O)c2ccc(NC(=O)Nc3ccc(N(C)c4ccnc(Nc5ccc(CS(C)(=O)=O)cc5)n4)cc3)cc2)CC1.Cl [GW830263A] | 20 |
| CCc1ccc(Oc2nccc(-c3c(-c4ccc(F)cc4)ncn3C3CCNCC3)n2)cc1 [SB-242719] | 71 |
| Cl.O=C(O[C@H]1CN[C@H](C#Cc2cc3ncnc(Nc4ccc5c(cnn5Cc5ccccc5)c4)c3s2)C1)N1CCOCC1 [GSK200398A] | 78 |
| COc1cc(/C=N/Nc2ncnc3[nH]ncc23)ccc1O [GW578748X] | 1.1 |
| Cl.c1ccc(Cc2nc3ccc(Nc4ncnc5ccccc45)cc3[nH]2)cc1 [GR269666A] | 100 |
| NS(=O)(=O)c1ccc(N/N=C2\C(=O)Nc3ccc(-c4cnco4)cc32)cc1 [GW276655] | 69 |
| COc1cc2ncnc(Nc3ccc4c(cnn4Cc4ccccc4)c3)c2cc1OC.Cl [GW282449A] | 100 |
